Target: full-length recombinant rat vitamin D receptor (Rattus norvegicus, UniProt P13053)
Construct: Full-length recombinant rat receptor was expressed in E. coli BL21 (DE3) Codon Plus RIL cells; His tag (C)
Sequence (P13053 1-423): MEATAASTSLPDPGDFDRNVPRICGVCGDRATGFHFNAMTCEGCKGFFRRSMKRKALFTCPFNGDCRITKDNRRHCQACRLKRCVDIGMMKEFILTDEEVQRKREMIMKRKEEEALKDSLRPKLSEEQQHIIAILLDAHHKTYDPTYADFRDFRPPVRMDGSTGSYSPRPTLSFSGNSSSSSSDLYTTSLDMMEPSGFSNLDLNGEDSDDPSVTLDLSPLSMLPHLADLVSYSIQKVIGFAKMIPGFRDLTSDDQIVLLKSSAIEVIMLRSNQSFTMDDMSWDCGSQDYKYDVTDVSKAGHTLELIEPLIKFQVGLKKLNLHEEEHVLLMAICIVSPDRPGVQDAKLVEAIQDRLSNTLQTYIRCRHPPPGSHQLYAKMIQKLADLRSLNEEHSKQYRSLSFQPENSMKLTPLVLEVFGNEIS
Test: Vitamin D receptor binding, competition with [3H]-1,25(OH)2D3
Conditions: full-length recombinant rat VDR; FIG. 1
EXPERIMENTAL_ENDPOINT: pKi
Lab note: report pKi as minus log10 of the concentration in molar units, number only.

For `C=C1[C@H](O)CC(=C/C=C2\CCC[C@]3(C)[C@@H]([C@@H](C)/C=C/C[C@H](C)O)CC[C@@H]23)C[C@H]1O` the compound record lists pKi as 9.52
